Parameter No. living longer than controls: see the listing below.
# Tested on: Herpes virus
# assay comment: Herpes virus in chicken eggs, single dose 24 hours pre-infection
# Type: in vivo, chick embryo
# measurement conditions: 2 μg

{"molecule": "NNC(N)=S [Thiosemicarbazide, thiosemicarbazide]", "No. living longer than controls": 0}
{"molecule": "NNC(N)=O [semicarbazide]", "No. living longer than controls": 0}
{"molecule": "NN [hydrazine]", "No. living longer than controls": 1}
{"molecule": "CCC(C)=NNC(N)=S", "No. living longer than controls": 3}

###

# Tested on: Influenza B Massachusetts virus
# assay comment: Influenza B Mass. in mice, oral; late read day 5 (Table 39), 7 (Table 40), 11 (Tables 61, 65); control fraction 16/20 (Table 61), else 100%
# Type: in vivo, mouse
# measurement conditions: total dose .5 μg (500 ng)
Parameter Survivors: see the listing below.

{"compound": "NNC(=O)c1ccncc1 [Isoniazid, isoniazid, reference compound]", "system name": "Influenza B Massachusetts virus", "Survivors": 0}
{"compound": "N#CCC(=O)NN [Cyonacetic Acid Carbazide, Cyanoacetic Acid Hydrazide]", "system name": "Influenza B Massachusetts virus", "Survivors": 4}
{"compound": "NNC(N)=O [semicarbazide]", "system name": "Influenza B Massachusetts virus", "Survivors": 0}
{"compound": "NC(=S)NN=C1CCCCC1 [Cyclohexanone, thiosemicarBazone, Cyclohexanone, thiosemicarbazone]", "system name": "Influenza B Massachusetts virus", "Survivors": 1}
